Source: patent US20240034792A1

biological target: T1, Human PD-1 expressed on CHO-K1 cells (CHO-K1/hPD-1) (human, UniProt Q15116 25-288); test: FACS, CHO-K1/hPD-1 cells
T1 construct: whole, on cells; also called CHO-K1 cells overexpressing human PD-1
T1 sequence (Q15116 25-288): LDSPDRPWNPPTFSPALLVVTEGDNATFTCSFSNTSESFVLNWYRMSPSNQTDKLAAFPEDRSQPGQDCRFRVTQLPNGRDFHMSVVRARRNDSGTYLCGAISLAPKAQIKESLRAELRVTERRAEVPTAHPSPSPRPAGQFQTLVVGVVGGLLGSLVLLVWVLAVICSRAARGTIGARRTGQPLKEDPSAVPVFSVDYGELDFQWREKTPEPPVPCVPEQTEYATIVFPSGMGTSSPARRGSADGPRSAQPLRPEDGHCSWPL
Catalogue of binders with associated pEC50
In textbook form, pEC50 equals minus log to base ten of the concentration in mol/L.

BINDER	pEC50
PR005574 (antibody, human IgG1, V domains shown, no light chain; also called anti-PD1 PR002481R2M1_F1 HCAb hIgG1) VH: EVQLVETGGGLIQPGGSLRLSCAASGFNVSSHYMSWVRQAPGKGREWVSIIDKAGSGYYADSVKGRFTISRDNSKNRLYLQMNSLRAEDTAMYYCARATEVREKQGYNYPFNYWGQGTLVTVSS	8.41

Recorded pEC50 of PR002481 (antibody, human IgG1, V domains shown, Heavy-chain-only antibody (HCAb), human IgG1 Fc; two heavy chains, no light chain; also called R4004P556D1; anti-PD1 R4004P556D1 HCAb hG1) VH: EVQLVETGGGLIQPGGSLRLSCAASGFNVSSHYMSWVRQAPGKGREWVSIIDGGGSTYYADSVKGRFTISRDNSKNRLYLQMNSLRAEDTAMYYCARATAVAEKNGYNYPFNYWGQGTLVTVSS , please.
8.10
